- Tested on: KM12 colon
- test: NCI-60 one-dose screen, 48 h (100 = growth as untreated, 0 = no growth, -100 = all killed)
- test parameters: 10 µM unless noted
- Description: Growth inhibition of the KM12 human tumor cell line is measured as a screen for anti-cancer activity. Cells are grown in 96 well plates and exposed to the test compound for 48 hours. Compounds are tested at a single concentration, which is 10^-5 M for most compounds. The reported endpoint is percent growth (GI% or GIPRCNT), where numbers from 0 - 100% represent growth inhibition, and numbers from -100% - 0 represent cell death. For example, a value of 40 represents 60% growth inhibition. […]
Compounds without any hit were thinned out: in the full panel of roughly 83,000, 20% have a hit.
Kindly state growth for each of the entries shown.
Answers are plain numbers, in %.

# count of solved cases: 5
- compound: "O=C(/C=C1\\C=CN(CCCCCCF)c2ccccc21)n1ccc2ccccc21"
  units: "%"
  measured number: 100
- compound: "O=C(/C=C/Nc1ccc(S(=O)(=O)O)cc1)c1ccc(F)cc1"
  units: "%"
  measured number: 104
- compound: "N#Cc1c(-c2cccs2)cc(-c2cnccn2)nc1SCC(=O)NNC(=S)Nc1ccc(F)cc1"
  units: "%"
  measured number: 101
- compound: "COc1cc2cc(Oc3ccc(NC(=O)c4cccc(C(F)(F)F)c4)cc3)c(C)nc2cc1OCCN(C)C"
  units: "%"
  measured number: 76.9
- compound: "Cc1[nH]nc2ccc(-c3nc4cnc(N5CCN(C)CC5)cn4c3Nc3ccc(F)cc3Br)cc12"
  units: "%"
  measured number: 59.3

# map each compound to its growth
1. COc1ccc(C(=O)c2c(N)c(C#N)cn2-c2cccc(OC)c2)cc1
2. Brc1cccc(/C=N/Nc2nc(N/N=C/c3cccc(Br)c3)nc(N3CCOCC3)n2)c1
3. NC(=O)N1N=C(c2cc3ccccc3oc2=O)CC1c1cn(-c2ccccc2)nc1-c1ccc(Cl)cc1 (stereo not given)

1: 23.7; 2: 30.3; 3: 34.5

# map each compound to its growth
1. Cn1nc(Nc2ccccc2)c(C(=O)NN)c1N
2. Oc1ccccc1-c1nnc(SCc2ccc(O)c3ncccc23)n1-c1ccccc1

[99.4, 15.4]

###

- Test system: HOP-62 NSCLC
- test: NCI-60 one-dose screen, 48 h (100 = growth as untreated, 0 = no growth, -100 = all killed)
- test parameters: 10 µM unless noted
Compounds without any hit were thinned out: in the full panel of roughly 83,000, 20% have a hit.
Kindly state growth for each of the entries shown.
Give bare numbers, in %.

- compound: "Cc1cn(-c2cc(NC(=O)c3cncc(C#Cc4cnc5ccc(OCCCS(C)(=O)=O)nn45)c3)cc(C(F)(F)F)c2)cn1"
  quantity measured: "growth"
  units: "%"
  measured number: 25.5
- compound: "COc1cc2c3c(n(CCCN4CCC[C@H]4C(N)=O)c(=O)c2cc1OC)-c1cc2c(cc1C3=O)OCO2"
  quantity measured: "growth"
  units: "%"
  measured number: -0.224
- compound: "Nc1n[nH]c2cccc(C#Cc3cccc(NC(=O)c4cccc(OC(F)(F)F)c4)c3)c12"
  quantity measured: "growth"
  units: "%"
  measured number: 59.4
- compound: "COc1ccc(CCN2C(=O)CSC2=S)cc1OC"
  quantity measured: "growth"
  units: "%"
  measured number: 105
- compound: "O=C1c2c(c3c4cccnc4[nH]c3c3ccc4ccccc4c23)C(=O)N1CCN1CCCCC1"
  quantity measured: "growth"
  units: "%"
  measured number: 36.6

# map each compound to its growth
1. CCOC(=O)c1c(NCC(=O)Nc2cccc(Cl)c2)sc2c1CCCC2
2. CCc1ccc(NC(=O)N[C@@H](Cc2cccc(C)c2)C(=O)N[C@@H]2C(=O)N3CCC[C@H]3C(=O)N3CCCC[C@H]3C(=O)N[C@@H](CO)C(=O)N3C[C@H](C)C[C@H]3C(=O)O[C@H]2C)c(F)c1
3. COc1ccc([C@H]2[C@H](O)C(=O)N2c2cc(OC)c(OC)c(OC)c2)cc1O
4. O=C1/C(=C/c2ccccc2[N+](=O)[O-])Oc2ccc(O)cc21
5. COc1ccc(-c2oc3cc(O)cc(O)c3c(=O)c2OC)cc1O
6. CS(=O)(=O)c1nccc(-c2c(-c3ccc(F)c(OCc4ccc(F)cc4)c3)nc3sccn23)n1

1: 78.6; 2: 30.5; 3: 18.9; 4: 78.3; 5: 29.1; 6: 68.3

# map each compound to its growth
1. Cc1cnc2nc(NN)[nH]n12
2. C/C(=C(/c1ccc(O)cc1)c1ccc(OCCN(C)C)cc1)c1ccc(Cl)cc1
3. Cc1ccc(/C=C/CC(=O)Nc2ccc(C(=O)Nc3ccc(F)cc3N)cc2)cn1
4. COc1ccc(C2C(C#N)=C(N)Oc3c2sc2ccc(C)cc32)cc1 (stereo not drawn)
5. O=C1c2c(O)cc(O)cc2O[C@@H](c2ccc(O)cc2)[C@@H]1c1c(O)cc(O)c2c(=O)cc(-c3ccc(O)c(O)c3)oc12

1: 93; 2: 67.4; 3: 59.1; 4: 30.1; 5: 96.3

# map each compound to its growth
1. Nc1nc(N)c2c(n1)NC(c1ccc(Cl)cc1)CC(c1ccc(Nc3nc(NCCO)nc(Nc4ccc(Cl)cc4)n3)cc1)=N2 (stereo not drawn)
2. COc1ccc([C@@H]2[C@@H](O)C(=O)N2c2cc(OC)c(OC)c(OC)c2)cc1Cl

1: -63.7; 2: 24.5
